Tested on: LOVO
Experiment: Cytotoxic activity in human cancer cell lines (72 h growth inhibition)
Assay type: cell-based
Settings: Colorectal; 72 h incubation; mean ± SEM
pIC50: −log10 of the molar value.
recorded_metric: pIC50

compound="COc1cc([C@@H]2COc3c(ccc(O)c3C)[C@@H]2c2ccc(O)cc2)cc(OC)c1O [TRX-E-002-1]" recorded_metric=pIC50 test_result=7.35

---

Tested on: OVCAR-3
Assay: Cytotoxic activity in human cancer cell lines (72 h growth inhibition)
Format: cell-based
Conditions: Ovarian, 72 h incubation, mean ± SEM
pIC50: −log10 of the molar value.
recorded_metric: pIC50

chemical_structure=COc1cc([C@@H]2COc3c(ccc(O)c3C)[C@@H]2c2ccc(O)cc2)cc(OC)c1O test_result=7.64

---

Assay: Rat 14-day pilot repeat-dose intraperitoneal toxicity study
Type: in vivo
Conditions: female, Sprague-Dawley, rat, plasma, ip; Day 14, 5 mg/kg/day, females
recorded_metric: AUC(0-t) (ng·h/mL)

chemical_structure=COc1cc([C@@H]2COc3c(ccc(O)c3C)[C@@H]2c2ccc(O)cc2)cc(OC)c1O recorded_metric=AUC(0-t) test_result=665

---

Experiment: Rat GLP 28-day repeat-dose intraperitoneal toxicity study
Assay type: in vivo, SD rats
Conditions: female, SD, rat, in vivo
recorded_metric: NOAEL at 28 days (mg/kg/day)

compound="COc1cc([C@@H]2COc3c(ccc(O)c3C)[C@@H]2c2ccc(O)cc2)cc(OC)c1O [TRX-E-002-1]" test_result=10

---

Experiment: Rat pharmacokinetics after single intraperitoneal injection of 100 mg/kg
Type: in vivo, Sprague–Dawley rats
Conditions: Sprague-Dawley, rat, plasma, ip; female rats, 100 mg/kg i.p.; read-out: T ½ (plasma elimination half-life) (converted)
recorded_metric: half-life

compound="COc1cc([C@@H]2COc3c(ccc(O)c3C)[C@@H]2c2ccc(O)cc2)cc(OC)c1O [TRX-E-002-1]" test_result="~1.3 h"

---

Assay: Dog GLP 28-day repeat-dose study, intraperitoneal three times per week
Type: in vivo, beagle dogs
Conditions: male, beagle, dog, in vivo, intraperitoneal; males
recorded_metric: NOAEL at 4 weeks (mg/kg)

chemical_structure=COc1cc([C@@H]2COc3c(ccc(O)c3C)[C@@H]2c2ccc(O)cc2)cc(OC)c1O test_result=10

---

Tested on: A549
Assay: Cytotoxic activity in human cancer cell lines (72 h growth inhibition)
Format: cell-based
Settings: Lung, 72 h incubation
recorded_metric: IC50

chemical_structure=COc1cc([C@@H]2COc3c(ccc(O)c3C)[C@@H]2c2ccc(O)cc2)cc(OC)c1O recorded_metric=IC50 test_result="58 nM"

---

Assay: Rat GLP 28-day repeat-dose intraperitoneal toxicity study
Assay type: in vivo, SD rats
Details: male, Sprague-Dawley, rat, plasma, ip; Day 1, 0.5 mg/kg, males
recorded_metric: Cmax (ng/mL)

chemical_structure=COc1cc([C@@H]2COc3c(ccc(O)c3C)[C@@H]2c2ccc(O)cc2)cc(OC)c1O quantity_unit=ng/mL test_result=35.4

---

Test: Second dog pharmacokinetic study, 10 mg/kg intraperitoneal, four dogs
Type: in vivo, beagle dogs
Details: beagle, dog, gastrointestinal tissues, ip; 24 h after dosing, 10 mg/kg i.p.; read-out: concentrations in gastrointestinal tissues relative to plasma
Procedure: In beagle dogs, plasma concentrations of unconjugated TRX-E-002-1 at early time points (1–4 h’ post-dose) were 76–93% of the total levels (parent + glucuronide). At 8 h, the plasma concentrations of the glucuronide metabolites were similar to those of parent drug. By 24 h’ post-dose, the concentrations of TRX-E-002-1-glucuronide in plasma and gastrointestinal tissues (except colon) were 2–12 times higher than those of the parent drug. […]
recorded_metric: Kp at 24 h

molecule="COc1cc([C@@H]2COc3c(ccc(O)c3C)[C@@H]2c2ccc(O)cc2)cc(OC)c1O [TRX-E-002-1]" test_result="≥ 30"
